Target: KDM3B (Homo sapiens, UniProt Q7LBC6)
Sequence (Q7LBC6 882-1761): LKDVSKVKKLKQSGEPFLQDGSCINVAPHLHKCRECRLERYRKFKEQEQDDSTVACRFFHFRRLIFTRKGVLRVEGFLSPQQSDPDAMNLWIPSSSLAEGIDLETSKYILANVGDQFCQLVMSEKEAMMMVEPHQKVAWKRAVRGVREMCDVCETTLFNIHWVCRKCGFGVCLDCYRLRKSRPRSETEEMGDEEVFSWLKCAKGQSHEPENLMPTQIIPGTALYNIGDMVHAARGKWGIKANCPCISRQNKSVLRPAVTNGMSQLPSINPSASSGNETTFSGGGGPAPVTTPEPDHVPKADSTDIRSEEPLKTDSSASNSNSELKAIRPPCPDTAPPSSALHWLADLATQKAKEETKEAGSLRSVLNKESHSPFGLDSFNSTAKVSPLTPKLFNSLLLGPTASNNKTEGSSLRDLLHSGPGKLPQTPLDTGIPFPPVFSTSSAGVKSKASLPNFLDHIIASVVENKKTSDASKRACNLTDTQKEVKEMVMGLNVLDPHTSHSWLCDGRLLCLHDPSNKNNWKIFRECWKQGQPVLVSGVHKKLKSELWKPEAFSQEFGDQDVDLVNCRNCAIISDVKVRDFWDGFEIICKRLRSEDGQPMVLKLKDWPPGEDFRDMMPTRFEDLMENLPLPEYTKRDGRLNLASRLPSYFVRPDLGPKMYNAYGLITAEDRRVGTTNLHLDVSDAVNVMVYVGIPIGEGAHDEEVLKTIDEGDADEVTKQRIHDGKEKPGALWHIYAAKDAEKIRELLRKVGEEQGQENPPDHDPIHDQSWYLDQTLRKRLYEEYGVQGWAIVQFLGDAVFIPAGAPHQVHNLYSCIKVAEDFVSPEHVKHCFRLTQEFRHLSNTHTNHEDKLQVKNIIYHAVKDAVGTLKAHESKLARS
For each record, check the reported IC50: if it is below 50 µM write 1, else write -1.

{"Structure string": "CCOC(=O)/C=C\\Sc1ncc(C(=O)O)c(=O)[nH]1", "Qualitative label": 1}
{"Structure string": "CSc1ncc(C(=O)O)c(=O)[nH]1", "Qualitative label": -1}
{"Structure string": "O=C(O)c1cnc(SCC2CCCCC2)[nH]c1=O", "Qualitative label": 1}
{"Structure string": "O=C(O)c1cnc(SCCCc2ccccc2)[nH]c1=O", "Qualitative label": -1}
{"Structure string": "CCCCSc1ncc(C(=O)O)c(=O)[nH]1", "Qualitative label": -1}
{"Structure string": "O=C(O)/C=C\\Sc1ncc(C(=O)O)c(=O)[nH]1", "Qualitative label": -1}
{"Structure string": "CCCCCCCCCSc1ncc(C(=O)O)c(=O)[nH]1", "Qualitative label": -1}

---

Attribute: IC50
Target: KDM5B (Homo sapiens)
Sequence (Q9UGL1 26-101 limits assumed): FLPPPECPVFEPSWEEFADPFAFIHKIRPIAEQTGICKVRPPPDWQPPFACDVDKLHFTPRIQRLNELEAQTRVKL
Sequence (Q9UGL1 374-770 limits assumed): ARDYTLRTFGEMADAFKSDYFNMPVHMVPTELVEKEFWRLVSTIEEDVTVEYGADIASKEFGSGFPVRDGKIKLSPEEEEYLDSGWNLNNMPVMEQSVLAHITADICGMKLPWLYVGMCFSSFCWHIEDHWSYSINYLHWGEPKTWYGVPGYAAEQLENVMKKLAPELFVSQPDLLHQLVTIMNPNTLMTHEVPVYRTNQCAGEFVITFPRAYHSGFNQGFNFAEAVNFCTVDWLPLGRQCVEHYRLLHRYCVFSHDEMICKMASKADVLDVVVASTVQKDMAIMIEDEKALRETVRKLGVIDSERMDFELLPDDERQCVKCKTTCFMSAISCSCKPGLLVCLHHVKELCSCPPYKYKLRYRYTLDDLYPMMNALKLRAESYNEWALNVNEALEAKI
Parameter: IC50 (µM)

{"Structure string": "O=C(O)c1cnc(SCCCc2ccccc2)[nH]c1=O", "Parameter": "IC50", "Reported relation": "=", "Assay result": 58.9}
{"Structure string": "O=C(O)c1cnc(SCc2ccccc2)[nH]c1=O", "Parameter": "IC50", "Reported relation": "=", "Assay result": 84.8}
{"Structure string": "CCCCCCCCCSc1ncc(C(=O)O)c(=O)[nH]1", "Parameter": "IC50", "Reported relation": "=", "Assay result": 22.6}
{"Structure string": "CCCCSc1ncc(C(=O)O)c(=O)[nH]1", "Parameter": "IC50", "Reported relation": "=", "Assay result": 21.5}
{"Structure string": "O=C(O)c1cnc(SCC2CCCCC2)[nH]c1=O", "Parameter": "IC50", "Reported relation": ">", "Assay result": 100}
{"Structure string": "CCOC(=O)/C=C\\Sc1ncc(C(=O)O)c(=O)[nH]1", "Parameter": "IC50", "Reported relation": "=", "Assay result": 33}

---

Target chain: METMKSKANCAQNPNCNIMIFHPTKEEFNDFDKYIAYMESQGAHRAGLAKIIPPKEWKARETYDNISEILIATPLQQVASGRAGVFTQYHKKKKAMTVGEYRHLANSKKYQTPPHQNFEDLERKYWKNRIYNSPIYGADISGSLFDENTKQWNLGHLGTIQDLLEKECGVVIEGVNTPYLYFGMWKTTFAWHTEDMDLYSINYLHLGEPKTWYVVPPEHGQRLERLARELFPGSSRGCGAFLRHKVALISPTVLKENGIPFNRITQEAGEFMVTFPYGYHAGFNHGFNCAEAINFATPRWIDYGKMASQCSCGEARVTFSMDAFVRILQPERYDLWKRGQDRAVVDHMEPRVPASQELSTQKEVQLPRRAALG
IC50 for assorted compounds

{"Structure string": "O=C(O)c1cnc(SCCc2ccccc2)[nH]c1=O", "Reported relation": "=", "IC50 / µM": 30.8}
{"Structure string": "O=C(O)c1cnc(SCCCc2ccccc2)[nH]c1=O", "Reported relation": "=", "IC50 / µM": 59.1}
{"Structure string": "O=C(O)c1c[nH]c(=S)[nH]c1=O", "Reported relation": ">", "IC50 / µM": 100}
{"Structure string": "CCCCCCCCCSc1ncc(C(=O)O)c(=O)[nH]1", "Reported relation": "=", "IC50 / µM": 19.8}
{"Structure string": "CCOC(=O)/C=C\\Sc1ncc(C(=O)O)c(=O)[nH]1", "Reported relation": "=", "IC50 / µM": 22}
{"Structure string": "O=C(CSc1ncc(C(=O)O)c(=O)[nH]1)c1ccccc1", "Reported relation": "=", "IC50 / µM": 26.7}
{"Structure string": "O=C(O)c1cnc(SCC2CCCCC2)[nH]c1=O", "Reported relation": "=", "IC50 / µM": 30.3}
{"Structure string": "CCCCSc1ncc(C(=O)O)c(=O)[nH]1", "Reported relation": "=", "IC50 / µM": 15.5}
{"Structure string": "CCCCCSc1ncc(C(=O)O)c(=O)[nH]1", "Reported relation": "=", "IC50 / µM": 27.5}
{"Structure string": "O=C(O)c1cnc(SCc2ccccc2)[nH]c1=O", "Reported relation": "=", "IC50 / µM": 34.7}
{"Structure string": "CSc1ncc(C(=O)O)c(=O)[nH]1", "Reported relation": "=", "IC50 / µM": 31.9}
{"Structure string": "O=C(O)/C=C\\Sc1ncc(C(=O)O)c(=O)[nH]1", "Reported relation": "=", "IC50 / µM": 123}
{"Structure string": "O=C(O)c1cnc(SCCCCc2ccccc2)[nH]c1=O", "Reported relation": "=", "IC50 / µM": 26}

---

Biological target: KDM4A (Homo sapiens, UniProt O75164)
Sequence (O75164 1-359): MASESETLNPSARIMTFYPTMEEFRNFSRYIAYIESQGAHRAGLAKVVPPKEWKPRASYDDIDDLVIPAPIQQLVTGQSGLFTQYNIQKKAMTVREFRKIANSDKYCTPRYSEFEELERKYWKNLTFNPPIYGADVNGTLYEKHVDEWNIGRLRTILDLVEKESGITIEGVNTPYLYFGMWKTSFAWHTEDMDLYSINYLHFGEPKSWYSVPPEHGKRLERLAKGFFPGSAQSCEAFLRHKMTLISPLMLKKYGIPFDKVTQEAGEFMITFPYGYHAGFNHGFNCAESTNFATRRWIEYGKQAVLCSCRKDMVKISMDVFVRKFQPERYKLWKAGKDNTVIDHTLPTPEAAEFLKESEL
pIC50: −log10 of the molar value.

{"Structure string": "O=C(O)c1c[nH]c(=S)[nH]c1=O", "Measurement target": "KDM4A (Homo sapiens, UniProt O75164)", "Reported relation": "<", "pIC50": 4.00}
{"Structure string": "CCOC(=O)/C=C\\Sc1ncc(C(=O)O)c(=O)[nH]1", "Measurement target": "KDM4A (Homo sapiens, UniProt O75164)", "Reported relation": "=", "pIC50": 4.95}
{"Structure string": "O=C(O)c1cnc(SCCc2ccccc2)[nH]c1=O", "Measurement target": "KDM4A (Homo sapiens, UniProt O75164)", "Reported relation": "=", "pIC50": 4.72}
{"Structure string": "O=C(O)c1cnc(SCCCCc2ccccc2)[nH]c1=O", "Measurement target": "KDM4A (Homo sapiens, UniProt O75164)", "Reported relation": "=", "pIC50": 4.84}

---

Target: MINA53 (Homo sapiens)
Construct: MINA53 (Met1-Val464 and Ala26-Val464); histidine tag (TEV-cleavable) (cleaved yes); made in house; host or cells: E. coli BL21(DE3)-R3-pRARE2
Sequence (Q8IUF8 1-464 isoform Q8IUF8-4): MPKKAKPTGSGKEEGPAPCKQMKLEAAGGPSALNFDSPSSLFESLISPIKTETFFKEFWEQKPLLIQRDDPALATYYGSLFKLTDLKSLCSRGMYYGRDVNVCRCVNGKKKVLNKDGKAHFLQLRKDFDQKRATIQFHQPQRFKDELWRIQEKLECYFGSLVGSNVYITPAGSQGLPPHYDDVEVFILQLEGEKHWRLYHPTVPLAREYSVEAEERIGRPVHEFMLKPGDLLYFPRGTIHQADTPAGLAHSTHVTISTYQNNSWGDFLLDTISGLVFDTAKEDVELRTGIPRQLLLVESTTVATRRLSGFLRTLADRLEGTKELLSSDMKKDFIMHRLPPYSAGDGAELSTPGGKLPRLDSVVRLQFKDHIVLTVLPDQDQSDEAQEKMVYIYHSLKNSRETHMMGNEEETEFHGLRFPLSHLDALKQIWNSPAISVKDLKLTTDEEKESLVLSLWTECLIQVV
Experiment: MINA53 MS (RapidFire) hydroxylation inhibition assay, Rpl27a peptide
Assay type: biochemical
Settings: MS based; enzyme 150 nM; means ± SD of at least three experiments; read-out: IC50 MINA53 (150 nM)
pIC50: −log10 of the molar value.
Entries and their pIC50
Parameter: pIC50

{"Structure string": "O=C(CSc1ncc(C(=O)O)c(=O)[nH]1)c1ccccc1", "Measurement target": "MINA53 (Homo sapiens)", "Parameter": "pIC50", "Assay result": 5.52}
{"Structure string": "CCOC(=O)/C=C\\Sc1ncc(C(=O)O)c(=O)[nH]1", "Measurement target": "MINA53 (Homo sapiens)", "Parameter": "pIC50", "Assay result": 5.27}
{"Structure string": "CCCCSc1ncc(C(=O)O)c(=O)[nH]1", "Measurement target": "MINA53 (Homo sapiens)", "Parameter": "pIC50", "Assay result": 4.88}
{"Structure string": "CSc1ncc(C(=O)O)c(=O)[nH]1", "Measurement target": "MINA53 (Homo sapiens)", "Parameter": "pIC50", "Assay result": 5.52}
{"Structure string": "O=C(O)/C=C\\Sc1ncc(C(=O)O)c(=O)[nH]1", "Measurement target": "MINA53 (Homo sapiens)", "Parameter": "pIC50", "Assay result": 5.17}
